- Test system: KYSE-220 (Esophageal Squamous Cell Carcinoma)
- test description: Bliss excess, mean over the matrix (fraction); higher = more synergy;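 further: after 72 h of two-drug dosing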
// Bliss excess lookup, one value per entry
Reply with just the number.

[[record]]
compound = "CS(=O)(=O)CCNCc1ccc(-c2ccc3ncnc(Nc4ccc(OCc5cccc(F)c5)c(Cl)c4)c3c2)o1 [Lapatinib] + Cn1cnc2c(F)c(Nc3ccc(Br)cc3Cl)c(C(=O)NOCCO)cc21 [Selumetinib] (first compound max 10 µM, 7x7, partner max 10 µM)"
result_number = -0.0056


We now examine a further compound.
*Q* May I ask what Bliss excess has been recorded for N#Cc1cnc(Nc2cc(NC[C@H]3CNCCO3)c(C(F)(F)F)cn2)cn1 [SRA737] + Nc1ccn([C@@H]2O[C@H](CO)[C@@H](O)C2(F)F)c(=O)n1 [Gemcitabine] (first compound max 10 µM, 7x7, partner max 0.3 µM) ?
*A* -0.0155

----------
- System: JHU-022 (Oral Cavity Carcinoma)
- test description: Bliss excess, mean over the matrix (fraction); higher = more synergy
outcome measure: Bliss excess

[[record]]
compound = "COc1cccc(OCCCN)c1-c1cc(Nc2cnc(C#N)cn2)n[nH]1 [Prexasertib] + Cc1cc2ncnn2cc1Nc1ncc2c(n1)n(C1CCOCC1)c(=O)n2C [AZD7648] (first compound max 1 µM, 7x7, partner max 10 µM)"
tested_target = "JHU-022 (Oral Cavity Carcinoma)"
result = -0.0661


Continue with the next compound.
*Q* Quick check: Bliss excess on JHU-022 (Oral Cavity Carcinoma), item CN(C)CCCOc1ccc(-c2ccc3ncc4c(c3c2)n(C2CCOCC2)c(=O)n4C)cn1 [AZD0156] + CCN(CCO)CCCOc1ccc2c(Nc3cc(CC(=O)Nc4cccc(F)c4)[nH]n3)ncnc2c1 [AZD2811] (first compound max 1 µM, 7x7, partner max 1 µM) ?
*A* -0.0143

----------
# Bliss excess annotations
- Tested on: SK-HEP-1 (Hepatocellular Carcinoma)
- test description: Bliss excess, mean over the matrix (fraction); higher = more synergy

*Q* Using the record for COc1cccc(OCCCN)c1-c1cc(Nc2cnc(C#N)cn2)n[nH]1 [Prexasertib] + C=CCn1c(=O)c2cnc(Nc3ccc(N4CCN(C)CC4)cc3)nc2n1-c1cccc(C(C)(C)O)n1 [AZD1775] (first compound max 1 µM, partner max 1 µM) , report its Bliss excess.
*A* 0.0775

*Q* Please report the recorded Bliss excess for NC1(C(=O)N[C@@H](CCO)c2ccc(Cl)cc2)CCN(c2ncnc3[nH]ccc23)CC1 [Capivasertib] + Cn1cnc2c(F)c(Nc3ccc(Br)cc3Cl)c(C(=O)NOCCO)cc21 [Selumetinib] (first compound max 10 µM, 7x7, partner max 10 µM) .
*A* -0.0083

----------
- System: DMS-53 (Small Cell Lung Carcinoma)
- test description: Bliss excess, mean over the matrix (fraction); higher = more synergy
outcome measure: Bliss excess
Field format: numeric only.

[[record]]
compound = "NC1(C(=O)N[C@@H](CCO)c2ccc(Cl)cc2)CCN(c2ncnc3[nH]ccc23)CC1 [Capivasertib] + CC(C)n1c(=O)n(C)c2cnc3cc(F)c(-c4ccc(OCCCN5CCCCC5)nc4)cc3c21 [AZD1390] (first compound max 10 µM, 7x7, partner max 0.3 µM)"
outcome_measure = "Bliss excess"
result_number = 0.0083

[[record]]
compound = "CN(CCO)CC[C@H](CSc1ccccc1)Nc1ccc(S(=O)(=O)NC(=O)c2ccc(N3CCC([C@@H](O)c4ccccc4-c4ccc(Cl)cc4)CC3)cc2)cc1S(=O)(=O)C(F)(F)F [AZD4320] + C1CN(CCC1(C(=O)N[C@@H](CCO)C2=CC=C(C=C2)Cl)N)C3=NC=NC4=C3C=CN4 [Capivasertib] (first compound max 1 µM, 7x7, partner max 3 µM)"
outcome_measure = "Bliss excess"
result_number = -0.0195


*Q* What does the data say about its Bliss excess? Entry: NC1(C(=O)N[C@@H](CCO)c2ccc(Cl)cc2)CCN(c2ncnc3[nH]ccc23)CC1 [Capivasertib] + CC(=O)c1c(C)c2cnc(Nc3ccc(N4CCNCC4)cn3)nc2n(C2CCCC2)c1=O [Palbociclib] (first compound max 10 µM, 7x7, partner max 10 µM)
*A* 0.0477

*Q* Give the measured Bliss excess of COc1nnc2ccc(N3CCC(c4ccc(OCCN5CCN(C)C(=O)[C@H]5C)cc4)CC3)nn12 [AZD5153] + C=CCn1c(=O)c2cnc(Nc3ccc(N4CCN(C)CC4)cc3)nc2n1-c1cccc(C(C)(C)O)n1 [AZD1775] (first compound max 1 µM, partner max 1 µM) .
*A* 0.0269

*Q* Please look up its Bliss excess: COc1cccc(OCCCN)c1-c1cc(Nc2cnc(C#N)cn2)n[nH]1 [Prexasertib] + CN(C)CCCOc1ccc(-c2ccc3ncc4c(c3c2)n(C2CCOCC2)c(=O)n4C)cn1 [AZD0156] (first compound max 1 µM, 7x7, partner max 1 µM)
*A* -0.0142

*Q* Could you tell me which Bliss excess is on file for NC1(C(=O)N[C@@H](CCO)c2ccc(Cl)cc2)CCN(c2ncnc3[nH]ccc23)CC1 [Capivasertib] + CCN(CCO)CCCOc1ccc2c(Nc3cc(CC(=O)Nc4cccc(F)c4)[nH]n3)ncnc2c1 [AZD2811] (first compound max 10 µM, 7x7, partner max 1 µM) ?
*A* 0.0225

*Q* I would be grateful if you could share the reported Bliss excess for CCc1c2c(nc3ccc(O)cc13)-c1cc3c(c(=O)n1C2)COC(=O)[C@]3(O)CC [SN-38] + CN(C)CCCOc1ccc(-c2ccc3ncc4c(c3c2)n(C2CCOCC2)c(=O)n4C)cn1 [AZD0156] (first compound max 0.3 µM, 7x7, partner max 1 µM) .
*A* -0.0288
